Target: HiBit tagged KAT6A (Homo sapiens)
Construct: host or cells: HeLa
Sequence (Q92794 whole entry): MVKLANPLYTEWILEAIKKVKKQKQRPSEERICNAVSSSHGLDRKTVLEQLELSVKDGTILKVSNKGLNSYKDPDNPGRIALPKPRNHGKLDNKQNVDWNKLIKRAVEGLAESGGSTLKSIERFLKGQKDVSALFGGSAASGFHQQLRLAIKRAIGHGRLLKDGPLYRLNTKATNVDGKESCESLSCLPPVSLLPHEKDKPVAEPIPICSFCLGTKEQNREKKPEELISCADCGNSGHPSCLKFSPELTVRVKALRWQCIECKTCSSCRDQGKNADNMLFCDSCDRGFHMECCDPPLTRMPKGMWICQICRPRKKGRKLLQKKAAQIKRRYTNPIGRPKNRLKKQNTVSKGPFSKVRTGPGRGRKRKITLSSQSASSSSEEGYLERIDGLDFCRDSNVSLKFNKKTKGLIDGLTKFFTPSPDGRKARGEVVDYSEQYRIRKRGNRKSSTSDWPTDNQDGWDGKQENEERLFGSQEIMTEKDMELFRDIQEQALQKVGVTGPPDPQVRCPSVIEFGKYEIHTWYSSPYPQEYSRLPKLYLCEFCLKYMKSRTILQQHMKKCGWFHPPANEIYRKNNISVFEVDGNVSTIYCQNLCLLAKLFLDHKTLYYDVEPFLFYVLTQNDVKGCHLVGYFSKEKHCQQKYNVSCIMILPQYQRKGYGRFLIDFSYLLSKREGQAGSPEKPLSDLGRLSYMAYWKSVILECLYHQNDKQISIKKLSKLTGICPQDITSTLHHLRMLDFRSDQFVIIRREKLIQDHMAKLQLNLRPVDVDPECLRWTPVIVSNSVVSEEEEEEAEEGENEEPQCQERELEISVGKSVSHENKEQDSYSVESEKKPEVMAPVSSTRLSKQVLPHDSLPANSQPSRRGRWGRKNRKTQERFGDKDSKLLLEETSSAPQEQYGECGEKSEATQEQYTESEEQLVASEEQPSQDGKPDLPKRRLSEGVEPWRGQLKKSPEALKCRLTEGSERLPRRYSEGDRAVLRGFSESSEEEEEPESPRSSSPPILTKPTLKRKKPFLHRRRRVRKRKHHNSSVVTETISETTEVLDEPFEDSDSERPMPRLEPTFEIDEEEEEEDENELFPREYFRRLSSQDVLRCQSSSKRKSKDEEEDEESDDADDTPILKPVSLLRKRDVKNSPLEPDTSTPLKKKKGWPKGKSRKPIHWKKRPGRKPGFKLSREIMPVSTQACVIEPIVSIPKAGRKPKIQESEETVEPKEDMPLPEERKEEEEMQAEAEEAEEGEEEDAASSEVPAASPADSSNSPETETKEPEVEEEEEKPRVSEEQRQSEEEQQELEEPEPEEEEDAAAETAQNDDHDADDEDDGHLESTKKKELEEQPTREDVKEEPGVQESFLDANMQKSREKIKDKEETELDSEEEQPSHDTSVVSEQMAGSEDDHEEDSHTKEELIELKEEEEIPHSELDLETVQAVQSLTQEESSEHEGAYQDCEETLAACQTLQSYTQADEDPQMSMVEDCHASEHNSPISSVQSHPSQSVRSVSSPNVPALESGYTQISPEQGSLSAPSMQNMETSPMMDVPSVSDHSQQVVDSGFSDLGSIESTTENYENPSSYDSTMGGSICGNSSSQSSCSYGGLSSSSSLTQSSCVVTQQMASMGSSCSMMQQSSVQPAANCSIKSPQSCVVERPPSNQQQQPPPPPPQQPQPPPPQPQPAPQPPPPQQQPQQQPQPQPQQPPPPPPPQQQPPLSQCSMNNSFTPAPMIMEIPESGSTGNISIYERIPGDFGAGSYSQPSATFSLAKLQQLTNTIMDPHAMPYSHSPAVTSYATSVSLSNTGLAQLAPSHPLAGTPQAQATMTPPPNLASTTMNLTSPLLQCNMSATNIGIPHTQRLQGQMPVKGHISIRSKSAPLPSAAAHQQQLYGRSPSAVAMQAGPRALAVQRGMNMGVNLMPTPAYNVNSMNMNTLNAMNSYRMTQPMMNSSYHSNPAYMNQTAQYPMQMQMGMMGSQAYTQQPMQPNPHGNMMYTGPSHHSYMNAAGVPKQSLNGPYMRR
Experiment: HiBit KAT6A Degradation Assessment
Type: cell-based
Settings: HeLa cells with HiBit tagged KAT6A, 18 h of treatment, 9-point serial dilution
experimental-readout: DC50

| molecule | DC50 |
| --- | --- |
| COc1cc(Cn2cccn2)cc2onc(NS(=O)(=O)c3cccc(N4CCC5(CCN(C[C@@H]6CCN(c7ccc8c(c7)C(=O)N(C7CCC(=O)NC7=O)C8=O)C6)CC5)C4)c3)c12 (stereo partly shown) [Example 15] | < 10 nM |
| COc1cc(Cn2cccn2)cc2onc(NS(=O)(=O)c3cccc(N4CC5(CCN(CC6CCN(c7ccc8c(c7)C(=O)N(C7CCC(=O)NC7=O)C8=O)C6)CC5)C4)c3)c12 (stereo not shown) [Example 5] | < 10 nM |
| COc1c(N2CC3(CCN(C[C@@H]4CCN(c5ccc6c(c5)C(=O)N(C5CCC(=O)NC5=O)C6=O)C4)CC3)C2)cccc1S(=O)(=O)Nc1noc2cc(Cn3cccn3)cc(OC)c12 (stereo partly shown) [Example 30] | < 10 nM |
| COc1c(N2CC3(CCN(C[C@H]4CCN(c5ccc6c(c5)CN(C5CCC(=O)NC5=O)C6=O)C4)CC3)C2)cccc1S(=O)(=O)Nc1noc2cc(Cn3cccn3)cc(OC)c12 (stereo partly shown) [Example 27] | < 10 nM |

Shift focus to the following entry.
Give DC50 for COc1cc(Cn2cccn2)cc2onc(NS(=O)(=O)c3cccc(N4C[C@@H]5CN(C[C@@H]6CCN(c7ccc8c(c7)CN([C@H]7CCC(=O)NC7=O)C8=O)C6)C[C@H]5C4)c3)c12 [Example 40]
< 10 nM
